experiment: qHTS for induction of synthetic lethality in tumor cells producing 2HG: qHTS for the HT-1080-NT fibrosarcoma cell line; conditions: HT-1080-NT fibrosarcoma viability, CellTiter-Glo ATP luminescence, 48 h; series mostly up to 46.1 µM;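 note: NT is the 2HG producing partner of a matched IDH1 knockdown line; nearly all actives have a fitted effect of over 55% in size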
Among all 360,000 compounds or so, about 6,000 (1.7%) were called active. Roughly 8% stayed inconclusive and do not appear here. The entries come from a sample that favours actives as a whole.

| compound | outcome |
| --- | --- |
| O=C(NC(=S)NC1CCCCC1)c1ccc(Cl)cc1 | inactive |
| N#CCSc1ccccc1NC(=O)CN1C(=O)NC(CCc2ccccc2)C1=O (stereo not drawn) | inactive |
| CCCCN1CC(C)(C)[C@H](CC(=O)Nc2ccc(Br)cc2)C1=O | inactive |

* * *

assay: qHTS for induction of synthetic lethality in tumor cells producing 2HG: qHTS for the HT-1080-NT fibrosarcoma cell line; conditions: HT-1080-NT fibrosarcoma viability, CellTiter-Glo ATP luminescence, 48 h; series mostly up to 46.1 µM;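 note: NT is the 2HG producing partner of a matched IDH1 knockdown line; nearly all actives have a fitted effect of over 55% in size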; note: potency is the fitted concentration of half-maximal effect
In all, about 360,000 compounds went through this assay and about 6,000 (1.7%) were called active. Not shown: some 8% with an inconclusive outcome. The sample as a whole holds a higher share of actives than the screen did.

| compound | Potency |
| --- | --- |
| O=C(O)C1=C(C(=O)O)C2CCC1C2 | inactive |
| C=C(C)COc1ccc(-c2n[nH]c(C)c2-c2ccccc2)c(O)c1 | 20.6 µM (active) |
| C=C(C)COc1ccc(-c2ncncc2-c2ccc(OC)cc2)c(O)c1 | inactive |
| CCOC1=C2[C@@H](CN(S(=O)(=O)c3ccc(C)cc3)[C@H]2c2ccccc2F)[C@H]2C(=O)N(Cc3ccccc3)C(=O)[C@H]2C1 | inactive |
| CCCCOC(=O)Nc1nccs1 | inactive |
| Cc1c2cnn(CC(=O)NCCCN3CC(C)CC(C)C3)c(=O)c2c(C)n1Cc1ccc(Cl)cc1 (configuration not stated) | 23.1 µM (active) |
| CC1=CC(C)(C)NC(=S)N1c1ccccc1 | 11.2 µM (active) |
| Cc1ccc(Cn2c(C)c3cnn(CC(=O)NCCN4CCOCC4)c(=O)c3c2C)cc1 | inactive |
| CCC(=O)N1CCCC1(C)C(=O)Nc1ccc2c(c1)CCN2C(C)=O (configuration not stated) | inactive |
| Cc1ccc(Cc2c(-c3ccc(C)cc3)nc3c4ccccc4ccn23)cc1 | inactive |
| CCCCc1nnc(NC(=O)CS(=O)(=O)Cc2ccccc2)s1 | inactive |
| CCCCCCn1c(=O)n2n(c1=O)C[C@]1(OC(=O)NCc3ccc(OC)c(OC)c3)CN(S(=O)(=O)c3ccc(C)cc3)C[C@]1(O)C2 | inactive |
| c1ccc(-c2nnc(N3CCOCC3)c3ccccc23)cc1 | inactive |
| CCCCOC(=O)Nc1nnc(CC(=O)NCc2ccccc2)s1 | 4.11 µM (active) |
| CCc1nc2ccc(C(=O)NCCNC(C)=O)cn2c1N(CC)Cc1cccc(Br)c1 | inactive |
| CCCNC(=O)C1(C)CCCN(Cc2cccc(C(F)(F)F)c2)C1 (configuration not stated) | inactive |
| CC1(C)OC(=O)C2=C(C[C@@H](C3CCCC3)O[C@@H]2c2ccc(Cl)cc2)O1 | inactive |

* * *

assay: qHTS for induction of synthetic lethality in tumor cells producing 2HG: qHTS for the HT-1080-NT fibrosarcoma cell line; conditions: HT-1080-NT fibrosarcoma viability, CellTiter-Glo ATP luminescence, 48 h; series mostly up to 46.1 µM;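 note: NT is the 2HG producing partner of a matched IDH1 knockdown line; nearly all actives have a fitted effect of over 55% in size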
The whole screen tested about 360,000 compounds, of which about 6,000 (1.7%) were called active. Inconclusive results (about 8%) are left out. Calls follow the shape of the dose curve; as a rule, active = well fitted cell-killing curve with a large enough effect; inconclusive = small, poorly fitted or top-dose-only effect, or effect the other way; inactive = flat fitted curve, though single readings scatter. The list comes from a sample in which actives are over-represented; it also holds close analogues and randomly drawn compounds.
Classes used: 1 = active, -1 = inactive

| compound | assignedClass |
| --- | --- |
| Cc1cc(C(=O)CCl)c(C)n1CC1COc2ccccc2O1 (centres undefined) | 1 |
| O=C(c1ccc(Oc2ccc(Cl)cc2)c([N+](=O)[O-])c1)N1CCCC1 | -1 |
| CC1(C)OC(=O)C2=C(C[C@@H](C3CCCCC3)O[C@@H]2c2ccc(Cl)cc2)O1 | -1 |
| O=[N+]([O-])c1ccc(Oc2ccc(F)cc2Br)c2ccncc12 | 1 |
| Nc1nc2c(ncn2[C@@H]2O[C@H](CNCc3ccc(OCCCN4CCOCC4)cc3)[C@@H](O)[C@H]2O)c(=O)[nH]1 | -1 |
| COc1ccccc1-n1c(SCC(=O)Nc2ccc(Cl)cc2)nc(O)c(Cc2ccccc2)c1=O | -1 |
| Nc1ncnc2c1ncn2[C@@H]1O[C@H](C(=O)N2CCSC2)[C@@H](O)[C@H]1O | -1 |
| CCN(CC(=O)Nc1ccc(NC(C)=O)cc1)C(=O)C1CC(=O)N(c2ccc3c(c2)OCCO3)C1 (centres undefined) | -1 |
| Cc1ccc(CCC(=O)Nc2ncc(Cc3cc(Cl)ccc3Cl)s2)o1 | 1 |
| CCOC(=O)[C@H]1Nc2ccc(Cl)cc2[C@@H]2[C@H]1C1CC(c3ccccc31)N2C(=O)OCc1ccccc1 (some centres undefined) | -1 |
| COc1ccc(CC(NC(C)=O)C(=O)NC2CCN(C(=O)C3CC3)CC2)cc1OC (centres undefined) | -1 |
| COc1ccc(-c2ccc(C(=O)NC(C)C)c3occc23)c(C)c1 | -1 |
| Cc1cccc(C)c1Cn1c(C)c(C(=O)NCc2cccc(Cl)c2)sc1=O | -1 |
| c1ccc(CNCc2ccc(CNCc3ccccc3)cc2)cc1 | -1 |

Values from PubChem BioAssay AID686970
